Tested on: HOP-92 NSCLC
Assay: NCI-60 one-dose screen, 48 h (100 = growth as untreated, 0 = no growth, -100 = all killed)
Conditions: 10 µM unless noted
The panel holds about 83,000 compounds, 20% with a hit somewhere; the sample as a whole holds those more often.
Records here are stratified by growth; strata: c1 (below 30%), c2 (30% to below 80%), c3 (80% or more)

| COMPOUND | CLASSIFICATION |
| --- | --- |
| N#Cc1c(NC(=O)c2cccs2)[n+]([O-])c2cc(C(F)(F)F)ccc2[n+]1[O-] | c2 |
| C=C1C(=O)O[C@H]2[C@H]1CC/C(COC(=O)c1cccnc1N)=C\CC[C@@]1(C)O[C@@H]21 | c1 |
| Nc1ccccc1NC(=O)c1ccc(CSc2nc(N3CCOCC3)c3cccn3n2)cc1 | c1 |
| C=C1C(=O)O[C@H]2[C@H]1CC/C(COC(=O)CCCCCCCC(=O)OC/C1=C/CC[C@@]3(C)O[C@H]3[C@H]3OC(=O)C(=C)[C@@H]3CC1)=C\CC[C@@]1(C)O[C@@H]21 | c1 |
| N#Cc1ccc(Oc2ccc3ccc(=O)oc3c2)cc1 | c2 |
| CCCn1cc(/C=N\N=C2\C(=O)Nc3ccc(C)cc32)c2ccccc21 | c2 |
| COC(=O)c1ccc2c(c1)NC(=O)[C@@H]1CCCN21 | c3 |
| C(=C\c1cn(-c2ccccc2)nc1-c1ccccc1)/c1nnc(-c2c[nH]c3ccccc23)o1 | c2 |
| CC(=O)c1ccc(NC(=O)CSc2nnc(-c3cc(-c4ccc(Cl)cc4)nc4ccccc34)o2)cc1 | c3 |
| NS(=O)(=O)c1ccc(C2C3=C(CCCC3=O)OC3=C2C(=O)c2ccccc2C3=O)cc1 (stereo not drawn) | c1 |
| O=C(CSC(=S)N1CCCCC1)Nc1ccccc1 | c3 |
| CCSc1nc(Cl)c(C#N)c(-c2ccc(F)cc2)n1 | c3 |

###

System: NCI-H322M lung
Assay: NCI-60 one-dose screen, 48 h
Details: 10 µM unless noted
This is part of a sample that, as a whole, favours compounds with a hit. Of some 83,000 tested, about 20% had one in any assay. Activity calls are given as the source filed them. Rule for the calls: active = growth percent below 10; inactive = the rest.
Classes used: Yes for active, No for inactive

| MOLECULE | CLASSIFICATION |
| --- | --- |
| O=C(Nc1ccc(N=Cc2ccccc2O)cc1)NC1C=c2ccccc2=CC1 (stereo unspecified) | No |
| COc1cccc2c1-c1ccccc1C2=O | No |
| Nc1c(C(=O)Nc2cccc3ccccc23)sc2nc3c(cc12)CCCCCC3 | No |
| C#C[C@@]1(O)[C@@H](CO)O[C@@H](n2cc(I)c3c(N)ncnc32)[C@@H]1O | No |
| O=C(O)C(C(=O)O)c1cccc2ccccc12 | No |
| COc1ccc2[nH]c(=O)c(/C=C/C(=O)/C=C/c3ccc(O)c(OC)c3)cc2c1 | No |
| COc1cc(C)ccc1Oc1nc(Nc2ccc(N3CCOCC3)cc2)ncc1N=Cc1cc(C(F)(F)F)cc(C(F)(F)F)c1 | No |
| O=C(Nc1nc2ccc(C(F)(F)F)cc2s1)c1cc(Cl)ccc1O | No |
| Oc1c(CCl)cc(Cl)cc1Cc1cc(Cl)cc(Cc2cc(Cl)cc(CCl)c2O)c1O | Yes |
| CCc1c(C(=O)N[C@@H](C(=O)OCc2ccccc2)C(C)O)[nH]c2ccc(Cl)cc12 (stereo partly specified) | No |
| Cc1cccc(C)c1NC(=O)CN(CC(C)C)CC(O)COc1ccccc1 (stereo unspecified) | No |
| Nc1c(C(=O)Nc2ccccn2)sc2nc3c(cc12)C(=O)CCC3 | No |
| CC(C)(C)c1nc2c(s1)c1nc(N)ncc1c1ccc(NS(=O)(=O)c3c(F)cccc3F)c(F)c12 | No |
| C=C1C(=O)O[C@H]2[C@H]1CC/C(COC(=O)CCCCCCCCC(=O)OC/C1=C/CC[C@@]3(C)O[C@H]3[C@H]3OC(=O)C(=C)[C@@H]3CC1)=C\CC[C@@]1(C)O[C@@H]21 | No |
| CCOCCc1c(O)nc(SC)[nH]c1=O | No |
| Cc1cnc(-c2ccc(-c3ccc(NC(=O)Nc4c(F)cc(F)cc4F)cc3F)c3c2C(=O)NC3)[nH]1 | No |
| COc1ccc2oc(=O)cc(-c3c(C#N)c(N)n4nc(N)c(C#N)c4c3C#N)c2c1 | No |
| C#C[C@@]1(O)[C@@H](CO)O[C@@H](n2cnc3c(-c4ccccc4)ncnc32)[C@@H]1O | No |
| Cc1c(C(=O)Nc2nc3ccccc3[nH]2)cnn1-c1ccccn1 | No |
| O=C1CC(c2ccc(O)c(O)c2)Oc2cc(O)c([C@@H]3O[C@H](CO)[C@@H](O)[C@H](O)[C@H]3O)c(O)c21 (stereo partly specified) | No |
| CC1CCCN(CCCCCOc2ccc3oc4ccccc4c(=O)c3c2)C1 (stereo unspecified) | No |
| COc1ccc(-c2cc(-c3nnc(SCC(=O)Nc4ccc(/C(C)=N\O)cc4)o3)c3ccccc3n2)cc1 | No |
| O=C(NC[C@H](O)CN1CCc2ccccc2C1)c1cc(NC2COC2)ncn1 | No |
| C=C(C)[C@@H]1CC[C@]2(C(=O)N=C=S)CC[C@]3(C)[C@H](CC[C@@H]4[C@@]5(C)CCC(=O)C(C)(C)[C@@H]5CC[C@]43C)[C@@H]12 | No |
| Cc1c(Cl)cccc1NC(=O)c1sc2nc3c(cc2c1N)CN(Cc1ccccc1)CC3 | No |
| O=C1[C@@H](OS(=O)(=O)CC(F)(F)F)[C@H](c2ccc(F)cn2)N1c1cc2c3ccccc3ccc2c2ccccc12 | No |

###

Test system: EKVX NSCLC
Experiment: NCI-60 one-dose screen, 48 h
Details: 10 µM unless noted
Compounds without any hit were thinned out: in the full panel of roughly 83,000, 20% have a hit. The source made the active and inactive calls. The calls were made as follows: active = growth percent below 10; inactive = the rest.
Outcome codes: 1 (yes) for active, 0 (no) for inactive

| COMPOUND | CLASSIFICATION |
| --- | --- |
| COc1ccc(/C=C/C(=O)C(CC2CCC2)C(=O)/C=C/c2ccc(OC)c(OC)c2)cc1OC | 1 (yes) |
| Oc1ccc(CNNc2ccnc3c(O)cccc23)c2cccnc12 | 1 (yes) |
| S=C(Nc1ccccc1)c1ccccn1 | 0 (no) |
| CCCCN(CCCC)CC(CN(CC)CC)OC(=O)Nc1ccccc1 (centres undefined) | 0 (no) |

###

Tested on: SNB-19 CNS
Experiment: NCI-60 one-dose screen, 48 h
Conditions: 10 µM unless noted
This is part of a sample that, as a whole, favours compounds with a hit. Of some 83,000 tested, about 20% had one in any assay. Active and inactive are the calls of the source. Rule for the calls: active = growth percent below 10; inactive = the rest.
Possible outcomes: active, inactive

| COMPOUND | CLASSIFICATION |
| --- | --- |
| O=C(C[n+]1cccc2cc(Cl)ccc21)c1ccc2c(c1)CCCC2 | inactive |
| CCOC(=O)c1c(-c2ccc(O)cc2)c(C#N)c2c(C#N)c(N)nn2c1N | inactive |
| Cc1nc2sc(C(=O)Nc3ccccc3Cl)c(N)c2cc1C(C)O (stereo not given) | inactive |
| COc1cc(C)ccc1Oc1nc(Nc2ccc(N3CCOCC3)cc2)ncc1N=Cc1cc(C(F)(F)F)cc(C(F)(F)F)c1 | inactive |
| CCN1CCN(c2ccc(NC(=O)Nc3nc4ccc(-c5ccccc5OC)cc4s3)cc2)CC1 | active |

###

Test system: NCI-H460 lung
Assay: NCI-60 one-dose screen, 48 h
Conditions: 10 µM unless noted
The panel holds about 83,000 compounds, 20% with a hit somewhere; the sample as a whole holds those more often. Active and inactive are the calls of the source. The calls were made as follows: active = growth percent below 10; inactive = the rest.
Outcome codes: active, inactive

| MOL SMILES | CLASSIFICATION |
| --- | --- |
| Nc1c(C(=O)Nc2ccccn2)sc2nc3c(cc12)C(=O)CCC3 | active |
| COC(=O)c1oc2c(C(=O)/C=C/c3ccc(OC)cc3)c(OCCCN3CCCCC3)ccc2c1C | active |
| Cc1cccc(NC(=O)c2sc3nc4c(cc3c2N)CN(Cc2ccccc2)CC4)c1C | inactive |
| O=C1Nc2ccc(Br)cc2/C1=N\N=C/c1cn(Cc2ccccc2)c2ccccc12 | inactive |
| COc1cc(-c2cn(-c3ccc(Cl)c(Cl)c3)c(=O)[nH]2)cc(OC)c1OC | inactive |
| COc1ccc2nc(-c3ccc(Cl)cc3)cc(-c3nnc(SC/C(=N/O)c4ccccc4)o3)c2c1 | inactive |

###

Tested on: SK-MEL-2 melanoma
Assay: NCI-60 one-dose screen, 48 h (100 = growth as untreated, 0 = no growth, -100 = all killed)
Conditions: 10 µM unless noted
The panel holds about 83,000 compounds, 20% with a hit somewhere; the sample as a whole holds those more often.
REPORTED PROPERTY: growth (%)

| COMPOUND | REPORTED PROPERTY | EXPERIMENTAL VALUE |
| --- | --- | --- |
| COc1ccc(C(=O)c2cc(OC)c(OC)c(OC)c2)cc1OC(=O)C(Cl)(Cl)Cl | growth | 29.8 |
| CC(=O)c1ccc(NC(=O)CSc2nnc(-c3cc(-c4ccc(C)cc4)nc4ccccc34)o2)cc1 | growth | 81.5 |
| Cc1nc2sc(C(=O)Nc3cccc4ccccc34)c(N)c2cc1C(C)O (centres undefined) | growth | 36.5 |
| CC(=O)OCC1OC(OC2C(COC(C)=O)OC(OCCC[S-])C(OC(C)=O)C2OC(C)=O)C(OC(C)=O)C(OC(C)=O)C1OC(C)=O.[Au+].c1ccc(CN2[CH-]N(Cc3ccccc3)C(c3ccccc3)=C2c2ccccc2)cc1 (centres undefined) | growth | 13.4 |
| C=C(C)[C@@H]1CC[C@]2(C(=O)OCCOCCOCC[P+](c3ccccc3)(c3ccccc3)c3ccccc3)CC[C@]3(C)[C@H](CC[C@@H]4[C@@]5(C)CC[C@H](OC(=O)C(Cl)Cl)C(C)(C)[C@@H]5CC[C@]43C)[C@@H]12 | growth | -45.4 |
| C=C1C(=O)O[C@H]2[C@H]1CC/C(COC(=O)CCC(=O)OC/C1=C/CC[C@@]3(C)O[C@H]3[C@H]3OC(=O)C(=C)[C@@H]3CC1)=C\CC[C@@]1(C)O[C@@H]21 | growth | 60.8 |
| C#CCN(CCCOc1ccc(Cl)cc1Cl)CCCSC(=O)CCCCCN1/C(=C\C=C2/CCCC(/C=C/C3=[N+](CCCCCC(=O)[O-])c4ccccc4C3(C)C)=C2Cl)C(C)(C)c2ccccc21 | growth | -29 |
| CC(C)C1=C[C@@]23CC[C@H]4[C@](C)(COCCC#N)CCC[C@]4(C)[C@H]2C[C@@H]1[C@@H]1[C@H]3[C@@H](OCCC#N)CC[C@@H]1OCCC#N | growth | 24.5 |
| O=c1cc(/C=N\Nc2nc(-c3ccc(Cl)cc3Cl)cs2)c2cc(Cl)ccc2o1 | growth | 92.9 |

Just for reference, PubChem BioAssay (NCI) is where these values come from.
